system: 377384-186-R-J1-PDC complex spheroid viability; assay: Anticancer human tumor 377384-186-R-J1-PDC patient-derived pancreatic carcinoma cell line growth inhibition [RAS]; conditions: second compound 0.1 µM; first compound 0.0949 µM; active means viability on the fitted dose curve at most 10% of control; inactive means the rest
Outcomes: Yes for active, No for inactive

COMPOUND	LABEL_VALUE
CCc1c2c(nc3ccc(O)cc13)-c1cc3c(c(=O)n1C2)COC(=O)[C@]3(O)CC + C#Cc1c(F)ccc2cc(O)cc(-c3ncc4c(N5CC6CCC(C5)N6)nc(OCC56CCCN5CC(F)C6)nc4c3F)c12	Yes
CC1(C)CCC(Nc2ncc(C(F)(F)F)c(-c3c[nH]c4c(P(C)(C)=O)c(C#N)ccc34)n2)CN1 (centres undefined) + C#Cc1c(F)ccc2cc(O)cc(-c3ncc4c(N5CC6CCC(C5)N6)nc(OCC56CCCN5CC(F)C6)nc4c3F)c12	Yes
CC1(C)CCC(Nc2ncc(C(F)(F)F)c(-c3c[nH]c4c(P(C)(C)=O)c(C#N)ccc34)n2)CN1 (centres undefined) + C=CC(=O)N1CCN(c2nc(OCC3CCCN3C)nc3c(F)c(-c4nc(N)cc(C)c4C(F)(F)F)c(Cl)cc23)C(C)C1	No
CCc1c2c(nc3ccc(O)cc13)-c1cc3c(c(=O)n1C2)COC(=O)[C@]3(O)CC + C=CC(=O)N1CCN(c2nc(OCC3CCCN3C)nc3c(F)c(-c4nc(N)cc(C)c4C(F)(F)F)c(Cl)cc23)C(C)C1	Yes

* * *

tested on: 377384-186-R-J1-PDC complex spheroid viability; assay: Anticancer human tumor 377384-186-R-J1-PDC cell line growth inhibition [RAS]; conditions: second compound 1 µM; first compound 0.00316 µM; active compounds read low;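 further: spheroids exposed to compounds for seven days before readout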
Catalogue of viability, T/C values

MOLECULE	TARGET_DESC	viability, T/C
C=CC(=O)Nc1cc(Nc2nccc(-c3cn(C)c4ccccc34)n2)c(OC)cc1N(C)CCN(C)C + C=CC(=O)N1CCN(c2nc(OCC3CCCN3C)nc3c(F)c(-c4nc(N)cc(C)c4C(F)(F)F)c(Cl)cc23)C(C)C1	377384-186-R-J1-PDC complex spheroid viability	93.2%
O=C(c1ccc(F)c(F)c1Nc1ccc(I)cc1F)N1CC(O)([C@@H]2CCCCN2)C1 + C#Cc1c(F)ccc2cc(O)cc(-c3ncc4c(N5CC6CCC(C5)N6)nc(OCC56CCCN5CC(F)C6)nc4c3F)c12	377384-186-R-J1-PDC complex spheroid viability	1.85%
CC(C)n1nc(-c2ccc3oc(N)nc3c2)c2c(N)ncnc21 + C#Cc1c(F)ccc2cc(O)cc(-c3ncc4c(N5CC6CCC(C5)N6)nc(OCC56CCCN5CC(F)C6)nc4c3F)c12	377384-186-R-J1-PDC complex spheroid viability	2.19%
Nc1ccn(C2OC(CO)C(O)C2(F)F)c(=O)n1 (stereo not given) + C=CC(=O)N1CCN(c2nc(OCC3CCCN3C)nc3c(F)c(-c4nc(N)cc(C)c4C(F)(F)F)c(Cl)cc23)C(C)C1	377384-186-R-J1-PDC complex spheroid viability	65.3%
CCN1CCN(Cc2ccc(Nc3ncc(F)c(-c4cc(F)c5nc(C)n(C(C)C)c5c4)n3)nc2)CC1 + C#Cc1c(F)ccc2cc(O)cc(-c3ncc4c(N5CC6CCC(C5)N6)nc(OCC56CCCN5CC(F)C6)nc4c3F)c12	377384-186-R-J1-PDC complex spheroid viability	2.87%
